# credit: patent US20120202806A1

Each entry below carries its reported inhibition at 10 µM.
# Assay target: human ferroportin (Fpn) (Homo sapiens, UniProt Q9NP59)
# Construct: expressed in transfected cells
# Sequence (Q9NP59 whole entry): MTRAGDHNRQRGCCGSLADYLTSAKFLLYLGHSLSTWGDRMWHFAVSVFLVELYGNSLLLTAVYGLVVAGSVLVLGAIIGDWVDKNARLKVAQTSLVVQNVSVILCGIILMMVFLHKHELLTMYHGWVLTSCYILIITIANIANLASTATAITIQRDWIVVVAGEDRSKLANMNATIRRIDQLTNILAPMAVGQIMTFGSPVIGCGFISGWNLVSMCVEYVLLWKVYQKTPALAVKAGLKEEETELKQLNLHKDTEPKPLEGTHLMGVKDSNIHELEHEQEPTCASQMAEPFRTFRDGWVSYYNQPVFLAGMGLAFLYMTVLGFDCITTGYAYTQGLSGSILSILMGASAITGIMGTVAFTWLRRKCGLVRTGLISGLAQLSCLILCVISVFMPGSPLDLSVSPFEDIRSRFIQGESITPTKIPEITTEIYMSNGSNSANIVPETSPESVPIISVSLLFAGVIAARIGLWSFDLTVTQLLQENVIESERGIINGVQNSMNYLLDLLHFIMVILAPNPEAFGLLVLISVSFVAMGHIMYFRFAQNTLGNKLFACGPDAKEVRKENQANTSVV
# Protocol description: Ferroportin internalisation assay (inhibition of hepcidin-induced internalisation of Fpn in MDCK-FPN-HaloTag cells)
# Type: cell-based
# Recorded conditions: 10 μM substance, 100 nM hepcidin, inhibition of Fpn internalisation, read-out: I [%] (Median Inhibition [%] at 10 μM substance conc.)

Reported inhibition at 10 µM ( C/C(=N\Nc1cc(N2CCOCC2)nc(C)n1)c1ccc(F)cc1 [Example 8] ) = < 50%

Reported inhibition at 10 µM ( c1ccc(N(c2ccccc2)c2nc(N3CCOCC3)nc(-n3ccnc3)n2)cc1 [Example 10] ) = > 50%

Reported inhibition at 10 µM ( CN(c1ccccc1)c1nc(N2CCOCC2)nc(-n2ccnc2)n1 [Example 11] ) = < 50%

New cases:
Reported inhibition at 10 µM ( COc1cnc(-c2ccccn2)nc1NC(C)C [Example 1] ) = > 50%

Reported inhibition at 10 µM ( Cc1nc(-c2ccccn2)nc(NCCNc2ccc(C(F)(F)F)cn2)c1Cl [Example 4] ) = < 50%

Reported inhibition at 10 µM ( Oc1cccc(/C=N/Nc2cc(N3CCOCC3)nc(N3CCOCC3)n2)c1 [Example 5] ) = > 50%

Reported inhibition at 10 µM ( Oc1ccccc1/C=N/Nc1cc(N2CCOCC2)nc(N2CCOCC2)n1 [Example 7] ) = > 50%

Reported inhibition at 10 µM ( Cc1nc(N/N=C/c2ccc(O)cc2O)cc(N2CCOCC2)n1 [Example 6] ) = > 50%

Reported inhibition at 10 µM ( Cc1nc(-c2ccccn2)nc(NCCNc2cc(C(F)(F)F)ccn2)c1Cl [Example 2] ) = < 50%

Reported inhibition at 10 µM ( Nc1nc(-c2ccccn2)nc(N)c1Cc1ccccc1F [Example 3] ) = < 50%

Reported inhibition at 10 µM ( Cc1ccc2cc(Nc3nc(N4CCOCC4)nc(N4CCOCC4)n3)ccc2n1 [Example 12] ) = < 50%

Reported inhibition at 10 µM ( COc1ccc(O)c(/C=N/Nc2nc(N3CCOCC3)nc(N3CCOCC3)n2)c1 [Example 9] ) = > 50%

----------
# Assay target: human ferroportin (Fpn) (Homo sapiens)
# Protocol description: Ferroportin internalisation assay (inhibition of hepcidin-induced internalisation of Fpn in MDCK-FPN-HaloTag cells)
# Recorded conditions: 100 nM hepcidin, overnight incubation, 11 concentrations 0.04 to 40 μM
pIC50: −log10 of the molar value.
Each entry below carries its reported pIC50.

Reported pIC50 ( COc1cnc(-c2ccccn2)nc1N(C)Cc1ccccc1 ) = < 4.30

Consider the additional compound presented here.
Reported pIC50 ( COc1cnc(CN)nc1NC(C)C ) = > 4.30
